test system: HOP-62 NSCLC; experiment: NCI tumour cell line growth inhibition, 48 h
TEST READOUT: GI50

Cc1nc2ccccc2c(/C=C/c2ccc(Br)cc2)c1C(=O)/C=C/c1ccccc1 ... 1.76 µM

Query: Can you look up the measured GI50 of CC(=O)Oc1ccccc1C(=O)/C=C/c1cccc([N+](=O)[O-])c1 for me?
Response: 2.5 µM

Query: Given the entry COc1ccc(C(=O)N2c3ccccc3Sc3ccccc32)c(OC)c1 , report its measured GI50.
Response: 0.822 µM

Query: Reported GI50, compound CCN1C(=O)N(CC)C2C1NN=c1s/c(=C3\C(=O)N(CCc4ccccc4)c4ccccc43)c(=O)n12 (stereo not given) : ____
Response: 0.697 µM

Query: Bench note: what GI50 did CCN(CCO)CC(C)Nc1ccc([N+](=O)[O-])c2sc3ccccc3c(=O)c12 (stereo not given) show?
Response: 1.27 µM

* * *

test system: RPMI-8226 leukemia; test: NCI tumour cell line growth inhibition, 48 h
Each item that follows carries a reported TGI.

COc1ccc(C=O)c(NC(=O)C(C)C)c1 ... 66.3 µM

Query: Given the entry CC1(C)C2CCC13CS(=O)(=O)N1O[C@]13C(=O)O2 (stereo not given in full) , report its measured TGI.
Response: > 100 µM

Query: For the compound shown here, CNS(=O)(=O)NNS(=O)(=O)c1ccc(Cl)cc1 , give the reported TGI.
Response: > 100 µM

Query: Reported TGI for CC(C)(C)OC(=O)NCCC1CN(C(=O)c2ccccc2)c2ccccc21 (stereo not given) : what is it?
Response: 54.4 µM

Query: What value of TGI has been recorded for this entry: OC(c1ccc(-c2ccccc2)cc1)C(F)(F)c1nc2ccccc2o1 (stereo not given)
Response: > 100 µM

Query: Tell me the measured TGI of CCCCCCCCCCCCCP(=O)(O)NCC(N)=O , please.
Response: > 100 µM

Query: What measured TGI goes with Cc1c(C2=C(c3cn(C)c4ccccc34)C(=O)NC2=O)c2ccccc2n1C ?
Response: > 25 µM

Query: Which TGI reading was recorded for the compound COC(=O)C1=C(OC(=O)c2ccccc2)C(C(=O)OC)[C@]2(O)[C@@H](C(=O)OC)[C@H]1C[C@@H](c1ccccc1)[C@@H]2C(=O)OC (stereo not given in full) ?
Response: 13.8 µM

Query: What does the record list as TGI for CCOC(=O)CSc1nnc(C(Sc2nc(-c3ccccc3)c(-c3ccccc3)[nH]2)C(C)C)n1-c1ccccc1 (stereo not given) ?
Response: > 86.9 µM

Query: Quick check: TGI of C/C1=C\[C@@H](O)C(=O)/C=C/C=C\c2csc(n2)[C@@H](C)NC(=O)C[C@@]2(CC1)S(=O)SC(=O)[C@]2(C)O (stereo not given in full) ?
Response: > 100 µM

* * *

system: NCI-H460 lung; test: NCI tumour cell line growth inhibition, 48 h
TEST READOUT: TGI

Reference set (5 entries):
COc1cc2c(cc1OC)C1(c3ccc(Cl)cc3)ON=C(c3ccccc3)N1CS2 (stereo unspecified) ... > 100 µM
Cc1ccc(/C(O)=C/C(=O)C(=O)NN=C(c2ccccc2)c2ccccc2)cc1 ... > 100 µM
COC(=O)CC1NC(=O)C1C1(C)OCCO1 (stereo unspecified) ... > 100 µM
COC(=O)C(C)(C)N=CN(C)C ... > 100 µM
COc1ccc2oc(=N)c(C(=O)Nc3ccccn3)cc2c1 ... > 100 µM

Query: Reported TGI for O=C(Nc1cccc(Nc2ncc(Br)c(NCCc3cnc[nH]3)n2)c1)N1CCCC1 : what is it?
Response: 15 µM

Value source: PubChem BioAssay (NCI)
